Measured % of Lc16Hc7, listed per entry for reference.
Target: T1, human IL-13 R130Q variant (R110Q of the mature chain) (human, UniProt P35225 35-146, Biotinylated on amines (NHS-LC-biotin, 4:1) in ELISA, panning and competition assays. The letters are unchanged.)
T1 construct: R130Q counts from Met 1 of the signal peptide, R110Q on the mature chain; Bought from Peprotech; also called IL-13 R110Q; b-R130Q
T1 sequence (P35225 35-146 limits assumed, stated change not applied): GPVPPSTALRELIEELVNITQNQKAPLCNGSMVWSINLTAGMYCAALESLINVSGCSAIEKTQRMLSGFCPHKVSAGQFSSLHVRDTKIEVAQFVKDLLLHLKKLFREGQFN
Experiment: single-point (10 nM) phage Fab ELISA on biotinylated IL-13 R130Q
A number alone suffices; assume %.

Consider the worked cases shown below.
binder | % of Lc16Hc7 [%]
Phage # 43 Fab (IL-13-142 library) (Fab, V domains shown, Fab on phage pIX) VH: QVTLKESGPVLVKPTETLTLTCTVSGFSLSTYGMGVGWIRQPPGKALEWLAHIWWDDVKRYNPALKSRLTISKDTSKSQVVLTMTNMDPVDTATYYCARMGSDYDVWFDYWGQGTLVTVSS VL: DIQMTQSPSTLSASVGDRVTITCRASKSISKYLAWYQQKPGKAPKLLIYSGSTLQSGVPSRFSGSGSGTEFTLTISSLQPDDFATYYCQQHLGQPYTFGGGTKVEIK | 205
Phage # 71 Fab (IL-13-142 library) (Fab, V domains shown, Fab on phage pIX) VH: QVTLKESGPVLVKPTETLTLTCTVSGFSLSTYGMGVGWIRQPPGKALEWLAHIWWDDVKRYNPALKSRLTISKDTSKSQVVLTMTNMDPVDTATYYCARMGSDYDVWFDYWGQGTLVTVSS VL: DIQMTQSPSTLSASVGDRVTITCRASKSISKYLAWYQQKPGKAPKLLIYSGSTLQSGVPSRFSGSGSGTEFTLTISSLQPDDFATYYCQQPLDSPYTFGGGTKVEIK | 208
Phage # 78 Fab (IL-13-142 library) (Fab, V domains shown, Fab on phage pIX) VH: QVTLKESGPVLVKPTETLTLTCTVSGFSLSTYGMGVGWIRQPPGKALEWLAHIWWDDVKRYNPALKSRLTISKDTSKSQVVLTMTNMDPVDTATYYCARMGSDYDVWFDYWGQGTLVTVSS VL: DIQMTQSPSTLSASVGDRVTITCRASKSISKYLAWYQQKPGKAPKLLIYSGSTLQSGVPSRFSGSGSGTEFTLTISSLQPDDFATYYCQQHLMAPYTFGGGTKVEIK | 154
Phage # 57 Fab (IL-13-142 library) (Fab, V domains shown, Fab on phage pIX) VH: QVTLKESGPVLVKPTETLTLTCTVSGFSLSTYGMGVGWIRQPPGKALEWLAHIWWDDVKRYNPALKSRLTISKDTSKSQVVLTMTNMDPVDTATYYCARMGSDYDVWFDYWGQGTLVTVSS VL: DIQMTQSPSTLSASVGDRVTITCRASKSISKYLAWYQQKPGKAPKLLIYSGSTLQSGVPSRFSGSGSGTEFTLTISSLQPDDFATYYCQQHDWEPYTFGGGTKVEIK | 245

Shifting focus to the binder that follows.
Record summary for Phage # 55 Fab (IL-13-142 library) (Fab, V domains shown, Fab on phage pIX) VH: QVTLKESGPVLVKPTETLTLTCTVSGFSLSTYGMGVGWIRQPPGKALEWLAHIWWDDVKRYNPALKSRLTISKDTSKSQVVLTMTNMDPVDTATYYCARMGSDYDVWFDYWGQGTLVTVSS VL: DIQMTQSPSTLSASVGDRVTITCRASKSISKYLAWYQQKPGKAPKLLIYSGSTLQSGVPSRFSGSGSGTEFTLTISSLQPDDFATYYCQQHLTNPYTFGGGTKVEIK : reported % of Lc16Hc7 = 355
